- Tested Target: Transcriptional activator protein TraR (Agrobacterium tumefaciens, UniProt P33905)
- Sequence (P33905 whole entry): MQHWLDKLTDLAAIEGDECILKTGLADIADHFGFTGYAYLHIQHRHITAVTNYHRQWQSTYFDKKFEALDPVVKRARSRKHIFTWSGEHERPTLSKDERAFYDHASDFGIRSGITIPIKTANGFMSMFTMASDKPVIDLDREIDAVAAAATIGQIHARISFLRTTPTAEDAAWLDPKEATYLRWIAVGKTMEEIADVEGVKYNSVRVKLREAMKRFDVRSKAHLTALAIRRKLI
pIC50: −log10 of the molar value.
Recorded Endpoint: pIC50

[I] CCCCCCC(=O)N[C@H]1CCOC1=O
[II] O=C(CC(=O)N[C@H]1CCOC1=O)Cc1ccccc1
Prompt: Thinking about recorded pIC50 values, which is higher, I or II ? Which one? Tell me its label.
Response: I

---

- Tested Target: Transcriptional activator protein LasR (Pseudomonas aeruginosa (strain ATCC 15692 / PAO1 / 1C / PRS 101 / LMG12228), UniProt P25084)
- Sequence (P25084 whole entry): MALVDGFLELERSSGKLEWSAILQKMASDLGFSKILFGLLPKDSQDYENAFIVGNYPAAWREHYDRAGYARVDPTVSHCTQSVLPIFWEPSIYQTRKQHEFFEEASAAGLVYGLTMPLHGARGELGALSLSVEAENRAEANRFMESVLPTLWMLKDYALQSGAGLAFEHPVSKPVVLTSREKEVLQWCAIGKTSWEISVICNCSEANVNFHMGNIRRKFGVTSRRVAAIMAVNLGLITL
- Measurement Protocol: Inhibition of Pseudomonas aeruginosa LasR
Recorded Endpoint: IC50 (µM)

- Compound: "O=C(CCCc1c[nH]c2ccccc12)N[C@H]1CCOC1=O"
  Unit Tag: "µM"
  IC50: 14.8
- Compound: "O=C(CC(=O)N[C@H]1CCOC1=O)Cc1ccccc1"
  Unit Tag: "µM"
  IC50: 53.6

[I] CCCCCCC(=O)N[C@H]1CCOC1=O
[II] O=C(CC1C=CCC1)N[C@H]1CCOC1=O (some centres undefined)
Prompt: Which record would sort first by descending IC50, I or II ? // output: label of the selected item
Response: I
